Tested on: EKVX NSCLC
procedure text: NCI-60 one-dose screen, 48 h
applied conditions: 10 µM unless noted
About 83,000 compounds went through this panel and 20% of them were active in at least one assay; those are over-represented in the sample as a whole. The source made the active and inactive calls. Rule for the calls: active = growth percent below 10; inactive = the rest.
Write down the outcome that applies. Available outcomes: Yes (active), No (inactive)

*Q* What outcome does the record of this test show for CC(=O)NC1(C(=O)O)CCCC1 ?
*A* No

*Q* What outcome does the record of this test show for CCOC(=O)c1ccccc1OC(=O)NNc1ccccc1 ?
*A* No

*Q* What outcome does the record of this test show for CC/C(=C\c1ccc(N(C)C)cc1)c1ccncc1 ?
*A* No

*Q* What outcome does the record of this test show for COC(=O)C[C@@H]1CC=CC(=O)/C1=C(O)/C=C/c1ccccc1 ?
*A* Yes

*Q* What outcome does the record of this test show for COc1ccc(C2=NN(C(=O)c3cc(OC)c(OC)c(OC)c3)C(c3ccc(C#N)cc3)C2)cc1OC (stereo unspecified) ?
*A* No

*Q* What outcome does the record of this test show for COC(=O)[C@]1(CCSC)N[C@H](c2cn(-c3ccccc3)nc2C)[C@@H]2C(=O)N(c3ccc(C)cc3)C(=O)[C@@H]21 ?
*A* No

*Q* What outcome does the record of this test show for CCOC(=O)c1c(C)c(C(=O)OCC)n(C)c1C ?
*A* No

*Q* What outcome does the record of this test show for COc1ccc(CCN2CCCN3C2=Nc2ccccc2S3(=O)=O)cc1 ?
*A* No

*Q* What outcome does the record of this test show for COc1cccc2c1C(=O)c1c(O)c3c(c(O)c1C2=O)C[C@@](O)(/C(C)=N/NC(=O)c1cccc([N+](=O)[O-])c1)C[C@@H]3OC1CC(N)C(O)C(C)O1 (stereo partly specified) ?
*A* Yes

*Q* What outcome does the record of this test show for Nc1ccc(S(=O)(=O)Nc2ncccn2)cc1 ?
*A* No

*Q* What outcome does the record of this test show for NCCCc1nnc(CCC(=O)c2nc3ccccc3[nH]2)o1 ?
*A* No

*Q* What outcome does the record of this test show for Cn1cc(-c2csc(-c3cn(C)c4ncccc34)n2)c2cccnc21 ?
*A* No

*Q* What outcome does the record of this test show for C[C@@H]1CC[C@H]2[C@@H](C)C(O)O[C@@H]3O[C@]4(C)CC[C@@H]1[C@]32OO4 (stereo partly specified) ?
*A* No

*Q* What outcome does the record of this test show for Cc1nc2c(O)cccc2cc1CO ?
*A* No

*Q* What outcome does the record of this test show for CC(NC(=O)C(C)Oc1ccc(Cl)cc1Cl)C(=O)O (stereo unspecified) ?
*A* No

*Q* What outcome does the record of this test show for COc1ccc2c(c1)C(=O)c1c-2c(OCCN(C)C)nc2cc(OC)ccc12 ?
*A* No

*Q* What outcome does the record of this test show for COc1cc2cn3c4ccc(O)cc4nc(N)c3c2cc1OC ?
*A* No

*Q* What outcome does the record of this test show for c1coc([C@@H]2C[C@@H]3Cc4ccc5ccccc5c4N2O3)c1 ?
*A* No

*Q* What outcome does the record of this test show for CCC(CCC(C)C1CCC2C3CC=C4CC(O)CCC4(C)C3CCC12C)C(C)C (stereo unspecified) (tested in a mixture with another compound) ?
*A* No

*Q* What outcome does the record of this test show for [O-]/[N+](=C\C=C\c1ccccc1)c1ccccc1 ?
*A* No

*Q* What outcome does the record of this test show for O=C1OC(c2ccc(-c3ccccc3)cc2)=C/C1=C/c1cccs1 ?
*A* No

*Q* What outcome does the record of this test show for CCN1C2=C(SC(=S)C1=C1SC(C(=O)OC)=C(C(=O)OC)S1)SC(=Nc1ccc(OC)cc1)C2=O ?
*A* No

*Q* What outcome does the record of this test show for O=C(Nc1ccc(Oc2ccc(NC(=O)Nc3ccc([N+](=O)[O-])cc3)cc2)cc1)Nc1ccc([N+](=O)[O-])cc1 ?
*A* No

*Q* What outcome does the record of this test show for ClC1=C(Cl)C(=C2C(Cl)=C(Cl)C(Cl)=C2Cl)C(Cl)=C1Cl ?
*A* No

*Q* What outcome does the record of this test show for CCOC(=O)C(Cc1ccccc1)(C(=O)OCC)C(Br)C(=O)c1ccccc1 (stereo unspecified) ?
*A* No

*Q* What outcome does the record of this test show for N#Cc1c(N2CCOCC2)nc2sc3cc(Cl)ccc3n2c1=N ?
*A* No

*Q* What outcome does the record of this test show for COc1ccc(-c2cn(-c3ccccc3)c(-c3ccccc3)n2)cc1OC ?
*A* No

*Q* What outcome does the record of this test show for CC(CCC(=O)O)(NC(=O)c1ccc([N+](=O)[O-])cc1)C(=O)O (stereo unspecified) ?
*A* No

*Q* What outcome does the record of this test show for COc1ccc2c(c1)C(=O)c1c-2c(OCCCN(C)C)nc2cc(Br)ccc12 ?
*A* No

*Q* What outcome does the record of this test show for CCCn1cnc2c1c(=O)n(CCCCC(C)=O)c(=O)n2C ?
*A* No

*Q* What outcome does the record of this test show for COc1ccc(/C=C2\COc3ccc(O)c(O)c3C2=O)cc1OC ?
*A* No

*Q* What outcome does the record of this test show for CCOC(=O)C1=C(C)N2C(=NC3=C(CCC/C3=C\c3ccc(Cl)cc3)C2c2ccc(Cl)cc2)S1 (stereo unspecified) ?
*A* No

*Q* What outcome does the record of this test show for O=C1CN(CO)C(=O)CN1CO ?
*A* No

*Q* What outcome does the record of this test show for COc1ccc(COC(C)=O)cc1 ?
*A* No

*Q* What outcome does the record of this test show for COc1cc([C@@H]2c3cc4c(cc3C(O[C@@H]3O[C@@H]5CO[C@@H](c6cccs6)OC5[C@H](O)[C@H]3O)C3COC(=O)[C@@H]32)OCO4)cc(OC)c1O (stereo partly specified) ?
*A* No

*Q* What outcome does the record of this test show for Cc1nn(-c2ccccc2)c(Cl)c1C(CC(=O)c1ccc(Cl)cc1)CC(=O)c1ccc(Cl)cc1 ?
*A* No

*Q* What outcome does the record of this test show for Cc1nn(-c2ccccc2)c2nc(Cl)c(/C=C/C(=O)c3ccccc3)c(-c3ccccc3)c12 ?
*A* No

*Q* What outcome does the record of this test show for CCn1c2c(c3ccccc31)SC1c3cccn3CCN1C2=S (stereo unspecified) ?
*A* No

*Q* What outcome does the record of this test show for C[n+]1ccc(Nc2ccc(NC(=O)c3ccc(Nc4cc[n+](C)c5ccc(N)cc45)cc3)cc2)cc1 ?
*A* No

*Q* What outcome does the record of this test show for O=C(Nc1ccc(Cl)cc1)Nc1ccc(Nc2nncc3ccccc23)cc1 ?
*A* No

*Q* What outcome does the record of this test show for COc1ccc2nc3cc(Cl)ccc3c(Nc3cc(C(C)C)c(O)cc3C)c2c1 ?
*A* No
